test: Cytotoxicity against PMA-differentiated THP-1 cells (MTT); format: cell-based, human; conditions: human
OBSERVED PROPERTY: CC50 (µM)

[[record]]
compound = "Nc1ccc(NCCC2CCCN3CCCCC23)c2c(=O)c3ccccc3sc12 (stereo not drawn)"
meas_value = 21.7

[[record]]
compound = "Cc1ccc(NC[C@@H]2CCCN3CCCC[C@H]23)c2c(=O)c3ccccc3sc12"
meas_value = 28

[[record]]
compound = "C(=C1c2ccccc2-c2ccccc21)[C@@H]1CCCN2CCCC[C@H]12"
meas_value = 53.9


###

test: Cytotoxicity against Vero-76 cells (crystal violet staining); assay type: cell-based, Cercopithecus Aethiops; details: Cercopithecus aethiops (African green monkey); Vero-76 monolayers; CC50 ± SD; read-out: CC50 Vero-76
OBSERVED PROPERTY: CC50 (µM)

[[record]]
smiles_record = "CCN(CC)CCNc1ccc(C)c2sc3ccccc3c(=O)c12"
meas_value = 12.4

